# Tested on: SNB-19 CNS
# assay method text: NCI tumour cell line growth inhibition, 48 h
measured endpoint: TGI

>>> measured("O=C(Nc1ccccc1)N(CCCCN(Cc1ccccc1)C(=O)Nc1ccccc1)Cc1ccccc1")
"> 100 µM"
>>> measured("O=[N+]([O-])c1cccc([As]=[As]c2cccc([N+](=O)[O-])c2)c1 (stereo unspecified)")
"0.279 µM"
>>> measured("CC(C)(O)CC(=O)NCCn1ccc2ncnc(Nc3ccc(Oc4cccc(C(F)(F)F)c4)c(Cl)c3)c21")
"> 10 µM"
>>> measured("COc1cc(C2C(Cl)C(=O)N2NC(=O)c2ccc(N)cc2)ccc1O (stereo unspecified)")
"78.9 µM"
>>> measured("O=CN/C=C/c1ccc(O)c(O)c1")
"> 100 µM"
>>> measured("O=C1c2cc3c(cc2CC12Cc1ccc4c(c1C2=O)CCCC4)CCCC3 (stereo unspecified)")
"> 100 µM"
>>> measured("COC(=O)C(CSSC[C@H](N/C(C)=C/C(C)=O)C(=O)OC)N/C(C)=C/C(C)=O (stereo partly specified)")
"> 100 µM"
>>> measured("NCCCN(CCCN)CCN(CCN(CCCN)CCCN)CCN(CCCN)CCCN")
"> 100 µM"
>>> measured("COc1ccc(C(C#N)Cc2cc(OC)c(OC)c(OC)c2)cc1 (stereo unspecified)")
"> 100 µM"
>>> measured("NNC(=O)Cn1c2ccc(Br)cc2c2nc3ccccc3nc21")
"> 100 µM"
>>> measured("Nc1ccccc1CC(O)C(=O)O (stereo unspecified)")
"> 100 µM"
>>> measured("CC1(C)[C@@H](OC(N)=O)[C@H]2O[C@H]2[C@]2(CO)[C@H]3CC[C@]4(C)[C@@H](c5ccc(=O)oc5)[C@@H](Cl)C[C@]4(O)C3=CC[C@@H]12")
"0.0509 µM"
>>> measured("CS[C@]12C(=O)C[C@@]3(C)[C@@H](CC[C@]3(O)C(=O)CO)[C@@H]1CCC1=CC(=O)CC[C@@]12C")
"> 100 µM"
>>> measured("O=C(OCCN=c1c2ccccc2ccc2ccccc12)c1ccc([N+](=O)[O-])cc1")
"> 100 µM"
>>> measured("O=C1c2ccccc2-c2c1c1ccccc1c(=O)n2CCN1CCOCC1")
"> 100 µM"
>>> measured("O=C(Nc1nc2ccccc2s1)c1cc([N+](=O)[O-])ccc1Cl")
"> 100 µM"
>>> measured("N#Cc1ccccc1-c1nc2c3c(c(N)ccc3n1)C(=O)c1ccccc1-2")
"> 100 µM"
>>> measured("Nc1nc(Nc2ccc(C3CCC(N4CCOCC4)CC3)cc2)nn1-c1ccccn1 (stereo unspecified)")
"> 100 µM"
>>> measured("S=C1SCN(Cc2ccco2)CN1c1ccc(Br)cc1")
"72.2 µM"
>>> measured("CC[N+]1(C)CCC(O)(c2ccc(Cl)c(Cl)c2)C(C(=O)c2ccc(Cl)c(Cl)c2)C1 (stereo unspecified)")
"> 10 µM"
>>> measured("Nc1[nH]nc2nc(-c3cccs3)cc(C(F)(F)F)c12")
"> 25 µM"
